Molecular target: T1, recombinant human Nectin4 antigen (human, UniProt Q96NY8 32-349)
T1 construct: construct not described
T1 sequence (looked up): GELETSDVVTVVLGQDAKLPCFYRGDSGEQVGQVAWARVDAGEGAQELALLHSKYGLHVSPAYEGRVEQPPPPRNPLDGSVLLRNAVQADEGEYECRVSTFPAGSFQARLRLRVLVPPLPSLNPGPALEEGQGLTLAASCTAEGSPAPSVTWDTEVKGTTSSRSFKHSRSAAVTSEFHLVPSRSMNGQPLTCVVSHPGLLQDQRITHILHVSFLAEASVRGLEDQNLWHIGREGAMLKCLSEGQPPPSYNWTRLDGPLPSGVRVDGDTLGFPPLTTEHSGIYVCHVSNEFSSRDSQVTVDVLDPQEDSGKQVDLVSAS
Experiment: ELISA, ratio of EC50s
Each entry below carries its recorded EC50 ratio pH 7.4/pH 6.0.
Lab note: record just the number, no unit beside it.

Worked cases, answers included:
Task: Write down EC50 ratio pH 7.4/pH 6.0 measured for item BAP-143-00-06 (antibody, V domains shown, Used as a conjugate with a linker payload (CAB ADC)) VH: EVQLVESGGGLVQPGGSLRLSCAASGFTFSSYNMNWVRQAPGKGLEWVSYISSSSSTIYYADSVKGRFTISRDNAKNSLSLQMNSLRDEDTAVYYCARAYYYGDDVWGQGTTVTVSS VL: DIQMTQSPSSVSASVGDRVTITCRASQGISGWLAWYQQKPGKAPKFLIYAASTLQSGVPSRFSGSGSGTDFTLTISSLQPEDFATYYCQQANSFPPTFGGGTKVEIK
Result: 2.83

Task: State its EC50 ratio pH 7.4/pH 6.0: BAP-143-00-03 (antibody, V domains shown, Used as a conjugate with a linker payload (CAB ADC)) VH: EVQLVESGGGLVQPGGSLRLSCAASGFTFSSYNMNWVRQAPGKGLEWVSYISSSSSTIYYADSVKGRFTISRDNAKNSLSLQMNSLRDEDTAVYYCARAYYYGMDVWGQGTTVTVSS VL: DIQMTQSPSSVSASVGDRVTITCRASQGISGWLAWYQQKPGKAPKFLIYAASTLQSGVPSRFSGSGSGTDFTLTISSLQPEDFATYYCQQANSFPDTFGGGTKVEIK
Result: 7.13

Task: For the binder BAP-143-00-05 (antibody, V domains shown, Used as a conjugate with a linker payload (CAB ADC)) VH: EVQLVESGGGLVQPGGSLRLSCAASGFTFSSYNMNWVRQAPGKGLEWVSYISSSSSTIYYADSVKGRFTISRDNAKNSLSLQMNSLRDEDTAVYYCAEAYYYGMDVWGQGTTVTVSS VL: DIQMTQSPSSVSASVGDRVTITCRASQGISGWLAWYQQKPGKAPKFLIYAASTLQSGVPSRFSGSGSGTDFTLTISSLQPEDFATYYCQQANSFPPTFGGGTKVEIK , report EC50 ratio pH 7.4/pH 6.0.
Result: 3.2

Turning now to a further record.
Task: Give recorded EC50 ratio pH 7.4/pH 6.0. BAP-143-00-04 (antibody, V domains shown, Used as a conjugate with a linker payload (CAB ADC)) VH: EVQLVESGGGLVQPGGSLRLSCAASGFTFSSYNDNWVRQAPGKGLEWVSYISSSSSTIYYADSVKGRFTISRDNAKNSLSLQMNSLRDEDTAVYYCARAYYYGMDVWGQGTTVTVSS VL: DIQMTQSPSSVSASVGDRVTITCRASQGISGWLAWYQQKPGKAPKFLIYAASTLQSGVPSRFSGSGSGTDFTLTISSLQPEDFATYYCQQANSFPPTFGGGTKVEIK
Result: 2.37
